settings: buffer; pH 7.4; 200.0 µM
property-measured: solubility kinetic

Below, each entry is followed by its recorded solubility kinetic result.
{"compound": "CCOc1ccc(NC(=O)NC2CCS(=O)(=O)C2)cc1 (stereo unspecified)", "solubility kinetic": "> 44.8 µg/mL"}
{"compound": "Cc1nc2c(C)[n+](CC(=O)c3ccccc3)ccc2n1C.[Br-]", "solubility kinetic": "> 54 µg/mL"}
{"compound": "CN(C)C(CNc1ccc(C(F)(F)F)cn1)c1ccccc1 (stereo unspecified)", "solubility kinetic": "> 46.4 µg/mL"}
{"compound": "NC(=O)CN1CCN(Cc2ccc3c(c2)OCO3)CC1", "solubility kinetic": "> 41.6 µg/mL"}
{"compound": "CCCCN(C)CCNC(=O)C(=O)c1c(C)[nH]c2ccccc12", "solubility kinetic": "> 47.3 µg/mL"}
{"compound": "CCC12CN3CCN(CC(C3)/C1=N\\NC(=O)c1ccc(F)cc1)C2", "solubility kinetic": "> 49.6 µg/mL"}
{"compound": "CC1(C)CC(NC(=O)c2ccc(Cl)c(Cl)c2)CC(C)(C)N1", "solubility kinetic": "> 49.4 µg/mL"}
{"compound": "Cc1cc(NC(=O)COC(=O)CNS(=O)(=O)c2c(F)cc(F)cc2Br)no1", "solubility kinetic": "> 70.2 µg/mL"}

The recorded solubility kinetic for CC(OC(=O)CCCc1nc2ccccc2s1)C(=O)NC(N)=O (stereo unspecified) is > 50.3 µg/mL

The recorded solubility kinetic for COc1ccc(NC(=O)CC2C(=O)NCCN2C(=O)c2ccccc2)cc1 (stereo unspecified) is > 55.1 µg/mL

The recorded solubility kinetic for COc1ccccc1NC(=O)N1CCOCC1 is > 35.4 µg/mL

----------
conditions: buffer; pH 7.4; 200.0 µM
property-measured: solubility kinetic

{"molecule": "CC1CCCCC12NC(=O)N(CC(=O)NCc1ccccc1Cl)C2=O (stereo not given)", "solubility kinetic": "> 54.6 µg/mL"}
{"molecule": "Cc1ccc(C(C)C)cc1OCC(=O)Nc1ccccc1N1CCCC1", "solubility kinetic": "< 0.4 µg/mL"}
{"molecule": "COc1ccc(/C=C2\\SC(=O)N(CCCC(=O)Nc3cc(Cl)ccc3C(=O)O)C2=O)cc1", "solubility kinetic": "> 71.2 µg/mL"}
{"molecule": "NS(=O)(=O)c1ccc(CCNC(=O)c2ccc3nccnc3c2)cc1", "solubility kinetic": "> 53.5 µg/mL"}

The recorded solubility kinetic for COC(=O)c1ccc(NC(=O)C[n+]2ccccc2C)cc1.[Cl-] is > 48.1 µg/mL

----------
Consider the following compounds and their measured solubility kinetic readings.
settings: buffer; pH 7.4; 200.0 µM
Report as a plain number; the unit µg/mL is understood.

Below, each entry is followed by its recorded solubility kinetic result.
{"compound": "CC1CCN(Cc2nc(Cl)c3c4c(sc3n2)CCC4)CC1", "solubility kinetic / µg/mL": 27.4}
{"compound": "NS(=O)(=O)c1ccc(NC(=O)CSc2nc3ccccc3c(=O)n2Cc2ccncc2)cc1", "solubility kinetic / µg/mL": 8}
{"compound": "COc1cccc(/C=N/c2nc3ccccc3n2C)c1O", "solubility kinetic / µg/mL": 23.1}

The recorded solubility kinetic for O=S(=O)(c1ccccc1F)N1CCCc2ccccc21 is 11.2

The recorded solubility kinetic for CCC1CCc2sc(C(=O)NCC3CCCO3)cc2C1 (stereo not drawn) is 42.3

The recorded solubility kinetic for Cc1ccc(-n2c3nc(=O)n(C)c(=O)c-3cc3ccccc32)cc1 is 12.3

----------
details: buffer; pH 7.4; 200.0 µM
property-measured: solubility kinetic

The recorded solubility kinetic for CCCCOc1ccc(C(=O)NCCC(=O)NCCCC(=O)OCC)cc1 is > 56.8 µg/mL

The recorded solubility kinetic for Cc1ccc(NC(=O)c2nsc(Cl)c2Cl)cc1 is < 0.3 µg/mL

The recorded solubility kinetic for CCC1CCCCN1C(=S)NC(=O)c1ccco1 (configuration not stated) is > 40 µg/mL

The recorded solubility kinetic for C[C@H](N)c1nnc(SCC(N)=O)o1.Cl is > 35.8 µg/mL

The recorded solubility kinetic for Cc1ccc(C)c(Oc2cc(F)nc(N)n2)c1 is > 35 µg/mL

The recorded solubility kinetic for CCC(CCC(=O)Nc1cccc([N+](=O)[O-])c1)C(=O)O (configuration not stated) is > 42 µg/mL

The recorded solubility kinetic for CCN1C(=O)c2cccc3c(S(=O)(=O)N4CCNCC4)ccc1c23 is > 51.8 µg/mL

----------
details: buffer; pH 7.4; 200.0 µM
Consider the following compounds and their measured solubility kinetic readings.

{"compound": "COCc1[nH]c(=S)[nH]c(=O)c1C", "property-measured": "solubility kinetic", "result": "> 27.9 µg/mL"}
{"compound": "Cc1ccc(C(=O)NCC(=O)Nc2ncccc2C)s1", "property-measured": "solubility kinetic", "result": "> 43.4 µg/mL"}

Now take the following compound into account.
The recorded solubility kinetic for Cc1oc2c(CN3CCCC(C)C3)c(O)ccc2c(=O)c1-c1ccccc1 (stereo not drawn) is > 54.5 µg/mL

----------
conditions: buffer; pH 7.4; 200.0 µM
# solubility kinetic >= 40 µg/mL gives Y, anything below gives N

Reference set (6 entries):
{"compound": "Cc1ccc(CCC(=O)Nc2ccc([N+](=O)[O-])cc2)o1", "discrete-label": "N"}
{"compound": "Fc1ccc(CNC(=S)Nc2ccccc2F)cc1", "discrete-label": "Y"}
{"compound": "O=C(COC(=O)c1cccs1)Nc1cccc(Cl)c1", "discrete-label": "N"}
{"compound": "CC(C)c1ccc(NS(=O)(=O)c2ccc(N3C(=O)CCC3=O)cc2)cc1", "discrete-label": "Y"}
{"compound": "O=C(O)c1ccc(/C=N/NC(=S)NCCN2CCOCC2)cc1", "discrete-label": "Y"}
{"compound": "C=CCSc1nc(N2CCOCC2)c2c(c1C#N)CC(C)(C)N(C)C2", "discrete-label": "Y"}

**Query** # check: solubility kinetic of COc1ccc(OC)c(C2=NOC(C(=O)Nc3cc(C)on3)C2)c1 (stereo not given) is greater than or equal to 40 µg/mL
**Result** Y

**Query** # check: solubility kinetic of Cc1cc(NC(=O)CSc2nnc(-c3ccccc3F)n2N)no1 is greater than or equal to 40 µg/mL
**Result** Y

**Query** # check: solubility kinetic of O=C(CN1CCN(c2ccc(F)cc2)CC1)Nc1nccs1 is greater than or equal to 40 µg/mL
**Result** N

**Query** # check: solubility kinetic of COc1ccc(OC)c(NC(=O)CC(NC(C)=O)c2ccccc2)c1 (stereo not given) is greater than or equal to 40 µg/mL
**Result** Y

**Query** # check: solubility kinetic of COc1ccccc1-n1c(-c2ccccc2)nc2ccccc2c1=O is greater than or equal to 40 µg/mL
**Result** Y

**Query** # check: solubility kinetic of O=C(CSc1nc2ccccc2s1)NCC1CCCO1 (stereo not given) is greater than or equal to 40 µg/mL
**Result** Y

**Query** # check: solubility kinetic of CCOC(=O)C1=C(c2ccccc2)OC(N)=C(C#N)C1c1cccnc1 (stereo not given) is greater than or equal to 40 µg/mL
**Result** N

**Query** # check: solubility kinetic of Cc1ccc(S(=O)(=O)NC(=O)Nc2ccc(C)cc2C)cc1 is greater than or equal to 40 µg/mL
**Result** N

----------
settings: buffer; pH 7.4; 200.0 µM
# solubility kinetic >= 20 µg/mL gives 1 (yes), anything below gives 0 (no)

{"molecule": "O=C(COC(=O)C1CCCC1)Nc1cccc(Cl)c1Cl", "discrete-label": "0 (no)"}
{"molecule": "O=S(=O)(NC(=S)NC1CCCCC1)c1ccc(Cl)cc1", "discrete-label": "1 (yes)"}
{"molecule": "COc1ccc(O)c(/C=N/N2CCOCC2)c1", "discrete-label": "1 (yes)"}
{"molecule": "Cc1c(C(=O)O)c(=O)n(-c2ccccc2)n1-c1ccccc1", "discrete-label": "1 (yes)"}
{"molecule": "Cc1ccc(S(=O)(=O)N2CCCCC2)cc1NC(=O)CSc1nnc(C2CC2)n1C", "discrete-label": "1 (yes)"}
{"molecule": "Cc1ccnc(SCC(=O)NC2CCCCCC2)n1", "discrete-label": "1 (yes)"}
{"molecule": "Cc1ccc(NC(=S)Nc2ccc(F)cc2)cc1", "discrete-label": "0 (no)"}
{"molecule": "COc1ccc(CNC(=O)CCSCc2ccc(C)cc2)cc1", "discrete-label": "0 (no)"}
{"molecule": "N#C/C(=C/c1cccc([N+](=O)[O-])c1)C(=O)Nc1ccccc1O", "discrete-label": "0 (no)"}
{"molecule": "NC(=S)c1cc2cc(Br)ccc2oc1=O", "discrete-label": "0 (no)"}

**Query** # check: solubility kinetic of COc1ccc(OC(C)C(=O)NC2CCCCCCC2)cc1 (stereo unspecified) is greater than or equal to 20 µg/mL
**Result** 1 (yes)

**Query** # check: solubility kinetic of Cc1cccc(NC(=O)CN2CCOCC2)c1C is greater than or equal to 20 µg/mL
**Result** 1 (yes)
